# Assay system: Leucine aminopeptidase (Plasmodium falciparum 3D7, UniProt Q8IL11)
# Sequence (Q8IL11 whole entry): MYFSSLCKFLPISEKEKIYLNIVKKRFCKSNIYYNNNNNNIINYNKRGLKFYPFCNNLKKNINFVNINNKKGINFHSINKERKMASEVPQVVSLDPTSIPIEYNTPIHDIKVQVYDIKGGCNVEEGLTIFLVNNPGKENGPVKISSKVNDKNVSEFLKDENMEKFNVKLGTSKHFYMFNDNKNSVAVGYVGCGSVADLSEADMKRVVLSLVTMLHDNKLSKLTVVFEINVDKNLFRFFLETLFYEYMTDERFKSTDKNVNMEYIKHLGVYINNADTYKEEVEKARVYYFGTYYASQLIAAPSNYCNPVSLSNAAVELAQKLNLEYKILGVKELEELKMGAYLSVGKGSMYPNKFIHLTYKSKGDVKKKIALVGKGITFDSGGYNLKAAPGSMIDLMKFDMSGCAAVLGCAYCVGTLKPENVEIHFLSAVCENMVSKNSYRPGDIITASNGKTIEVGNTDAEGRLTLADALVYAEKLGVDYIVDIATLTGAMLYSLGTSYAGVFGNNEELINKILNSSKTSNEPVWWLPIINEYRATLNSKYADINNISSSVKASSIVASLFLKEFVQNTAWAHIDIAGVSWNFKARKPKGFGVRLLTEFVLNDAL
# Experiment description: P. falciparum M17LAP inhibitors, primary screen, biochemical, fluorogenic H-Leu-NHMec substrate, 1536-well (AID 1619)
# Assay type: functional
Active and inactive are the calls of the source.
Would you mind telling me the reported IC50 of each entry?

Lookup: Which IC50 value belongs to "O=c1cc(-c2ccc(F)cc2)[nH][nH]1" ?
Found: 1.13 µM (active)

Lookup: // repeat for Cc1ccc(Nc2nnc(SC3CCOC3=O)s2)c(C)c1 (stereo not given) and report
Found: 2.57 µM (active)

Lookup: // repeat for CC1=NNC(=O)C1CC(=O)N/N=C/C(C)=C/c1ccccc1 (stereo not given) and report
Found: 52.8 µM (active)

Lookup: // repeat for "CCOC(=O)Nc1c(O)ccc2oc(C)c(-c3ccccc3)c12" and report
Found: 17.3 µM (active)

Lookup: // repeat for "COc1ccc(NC(=O)CSc2nccc(C)n2)cc1" and report
Found: 20.3 µM (active)

====

# Assay system: Endoribonuclease toxin MazF (Escherichia coli K-12, UniProt P0AE70)
# Sequence (P0AE70 whole entry): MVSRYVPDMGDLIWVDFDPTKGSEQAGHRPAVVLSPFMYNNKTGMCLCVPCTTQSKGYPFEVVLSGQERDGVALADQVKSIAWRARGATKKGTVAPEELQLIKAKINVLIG
# Experiment description: MazF toxin RNase activators, dose response, biochemical, fluorescence, single-stranded RNA substrate, uHTS hits (AID 588481)
# Format: functional
The source made the active and inactive calls.
Hi! Could you answer with just one of these? active, inactive

Lookup: Lab log entry: "COCCCn1c(=O)/c(=C\c2ccccc2OC(F)F)s/c1=C(/C#N)C(=O)NCCOC" — outcome as called in the assay?
Found: inactive

Lookup: // repeat for "O=C1CSC(=S)N1N=Cc1c(O)ccc2ccccc12" and report
Found: inactive

Lookup: // repeat for "Cc1cccc(C(=O)OCc2cc3ccccc3[nH]c2=O)c1" and report
Found: inactive

Lookup: // repeat for "CCn1cc(C=C2C(=O)c3ccccc3C2=O)c2ccccc21" and report
Found: inactive

Lookup: // repeat for "CCOC(=O)CSc1nc2ccc(C)cc2cc1C#N" and report
Found: active

====

# Assay system: Histone-lysine N-methyltransferase NSD2 (Homo sapiens, UniProt O96028)
# Sequence (O96028 whole entry): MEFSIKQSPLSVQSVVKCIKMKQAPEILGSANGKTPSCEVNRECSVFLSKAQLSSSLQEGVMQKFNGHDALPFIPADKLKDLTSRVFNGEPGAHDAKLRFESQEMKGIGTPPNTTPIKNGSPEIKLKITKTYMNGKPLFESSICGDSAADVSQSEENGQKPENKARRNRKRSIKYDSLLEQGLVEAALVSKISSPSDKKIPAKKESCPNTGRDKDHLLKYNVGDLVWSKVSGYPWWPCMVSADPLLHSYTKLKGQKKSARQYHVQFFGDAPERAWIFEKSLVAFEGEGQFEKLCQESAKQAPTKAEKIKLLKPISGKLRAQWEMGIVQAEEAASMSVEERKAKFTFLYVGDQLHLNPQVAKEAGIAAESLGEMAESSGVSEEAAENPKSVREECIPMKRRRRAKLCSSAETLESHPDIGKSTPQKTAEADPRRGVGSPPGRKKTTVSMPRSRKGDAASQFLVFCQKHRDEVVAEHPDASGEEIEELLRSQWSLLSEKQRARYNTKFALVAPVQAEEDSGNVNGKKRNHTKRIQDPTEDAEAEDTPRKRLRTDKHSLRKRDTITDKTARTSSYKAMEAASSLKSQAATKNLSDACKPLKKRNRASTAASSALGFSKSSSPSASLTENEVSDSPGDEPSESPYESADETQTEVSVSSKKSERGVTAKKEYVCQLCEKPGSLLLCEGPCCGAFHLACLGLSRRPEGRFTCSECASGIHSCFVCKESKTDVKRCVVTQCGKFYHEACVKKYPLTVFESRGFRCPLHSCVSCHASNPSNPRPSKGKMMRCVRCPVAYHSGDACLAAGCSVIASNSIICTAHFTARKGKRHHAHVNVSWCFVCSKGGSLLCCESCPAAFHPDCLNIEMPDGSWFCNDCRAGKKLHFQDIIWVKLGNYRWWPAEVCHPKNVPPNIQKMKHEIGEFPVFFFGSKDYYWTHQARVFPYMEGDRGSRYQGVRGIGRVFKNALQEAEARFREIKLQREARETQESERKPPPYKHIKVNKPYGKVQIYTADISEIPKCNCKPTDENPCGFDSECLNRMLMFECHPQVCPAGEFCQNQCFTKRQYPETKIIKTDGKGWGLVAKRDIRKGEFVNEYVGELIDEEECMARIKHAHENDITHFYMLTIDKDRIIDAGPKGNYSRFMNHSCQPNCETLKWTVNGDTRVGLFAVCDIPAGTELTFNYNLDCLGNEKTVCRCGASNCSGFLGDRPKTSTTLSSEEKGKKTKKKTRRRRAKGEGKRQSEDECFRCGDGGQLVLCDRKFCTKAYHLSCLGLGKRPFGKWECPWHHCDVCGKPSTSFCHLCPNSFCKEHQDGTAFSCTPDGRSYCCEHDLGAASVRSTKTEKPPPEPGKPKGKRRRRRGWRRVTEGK
# Format: biochemical
Calls of active or inactive are those of the source.
Hi! Could you answer with just one of these? true (1) (active), false (0) (inactive)

Lookup: Lab log entry: "CN(C)c1cccc2c1C(=O)c1ccccc1C2=O" — outcome as called in the assay?
Found: true (1)

Lookup: // repeat for "COc1ccc2nc(C)cc(SCC(=O)N/N=C/c3ccc(O)c(O)c3)c2c1" and report
Found: false (0)

Lookup: // repeat for "O=C(O)c1cc(N2C(=O)C=CC2=O)cc(N2C(=O)C=CC2=O)c1" and report
Found: true (1)

Lookup: // repeat for CCNC1CCC(Nc2ccnc3cc(Cl)ccc23)CC1 (stereo unspecified) and report
Found: true (1)

Lookup: // repeat for CCN1CCCC1CNc1[nH]cnc2c3cc(Cl)ccc3nc1-2 (stereo unspecified) and report
Found: false (0)

Lookup: // repeat for "CCCCN1C(=O)/C(=C/C=C/c2ccco2)C(=O)NC1=S" and report
Found: true (1)

====

# Assay system: Protein RecA (Mycobacterium tuberculosis, UniProt P9WHJ3)
# Experiment description: Fluorescence Cell-Free Homogeneous Dose Retest to Identify Inhibitors of RecA-Intein Splicing Activity. [Related pubchem assays (depositor defined):AID2097, AID2223, AID489010, AID492950]
# Type: functional
Activity calls are given as the source filed them.
Would you mind telling me the reported EC50 of each entry?

Lookup: Which EC50 value belongs to "CC(=O)n1cc(N(C(=O)CCl)c2ccc([N+](=O)[O-])cc2)c2ccccc21" ?
Found: 0.358 µM (active)

Lookup: // repeat for "COc1ccc(Br)cc1[C@H]1[C@@H]2C=CCC[C@@]2(C)C(=O)N1Cc1ccccc1" and report
Found: 26.7 µM (active)

Lookup: // repeat for "O=C(Nc1ccc(F)cc1)c1nn(-c2ccccc2)c(=O)cc1Cl" and report
Found: 8.71 µM (active)

Lookup: // repeat for "CCCCCc1c2c(cc(O)c1C(=O)O)OC(=O)c1c(cc(OC)cc1C(=O)CCCC)O2" and report
Found: 4.98 µM (active)

Lookup: // repeat for "O=c1cc(-c2ccc(F)cc2)[nH][nH]1" and report
Found: 0.548 µM (active)

====

# Assay system: Paired box protein Pax-8 (Homo sapiens)
# Sequence (Q06710 whole entry): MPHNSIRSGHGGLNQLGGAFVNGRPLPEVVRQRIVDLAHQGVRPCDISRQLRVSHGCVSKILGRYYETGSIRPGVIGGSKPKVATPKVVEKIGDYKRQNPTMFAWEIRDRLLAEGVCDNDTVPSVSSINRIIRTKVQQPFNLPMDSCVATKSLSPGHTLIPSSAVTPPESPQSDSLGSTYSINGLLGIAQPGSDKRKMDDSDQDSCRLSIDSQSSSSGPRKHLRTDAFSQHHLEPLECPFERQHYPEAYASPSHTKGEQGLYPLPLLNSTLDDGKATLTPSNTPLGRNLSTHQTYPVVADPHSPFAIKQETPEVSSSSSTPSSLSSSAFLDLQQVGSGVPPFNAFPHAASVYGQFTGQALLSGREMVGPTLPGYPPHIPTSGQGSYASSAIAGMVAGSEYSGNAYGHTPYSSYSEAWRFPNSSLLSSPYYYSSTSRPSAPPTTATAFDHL
# Experiment description: inhibitors of PAX8-driven TPO luciferase reporter, dose response, RMG-I cells, cherry-pick (AID 687027);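 also: luciferase reporter driven by Pax8 target thyroperoxidase promoter measured by SteadyGlo luminescence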
# Assay type: functional, cell-based
Activity calls are given as the source filed them.
Measurement name: AC50

Lookup: What AC50 appears in the records for this molecule with Paired box protein Pax-8 (Homo sapiens)? "CN(N=Nc1[nH]cnc1C(N)=O)C1CCCCC1"
Found: 6.78 µM (active)

Lookup: // repeat for "COc1cc(/C=N/O)ccc1OCc1ccc(C(=O)O)cc1" and report
Found: 5.79 µM (active)

Lookup: // repeat for "C[C@@H]1CCCCO[C@H](CN(C)Cc2ccc(C(F)(F)F)cc2)[C@@H](C)CN([C@@H](C)CO)C(=O)c2cc(NC(=O)c3ccccc3)ccc2O1" and report
Found: 6.57 µM (active)

Lookup: // repeat for "C[C@@H]1CCCCO[C@H](CN(C)Cc2ccccc2)[C@H](C)CN([C@@H](C)CO)C(=O)c2cc(NC(=O)Nc3ccc(C(F)(F)F)cc3)ccc2O1" and report
Found: 9.11 µM (active)

Lookup: // repeat for "COc1ccc(NC(=O)N2CCCCN3[C@H](CO)[C@H](c4ccc(C#Cc5ccccc5)cc4)[C@H]3C2)cc1" and report
Found: 23.2 µM (active)

Lookup: // repeat for "CC(=O)Nc1ccc(Sc2ccc([N+](=O)[O-])o2)cc1" and report
Found: 7.36 µM (active)

Lookup: // repeat for "Cc1ccc(N(NC(=O)C(O)(c2ccccc2)c2ccccc2)C(=O)CCl)cc1" and report
Found: 8.18 µM (active)

Lookup: // repeat for "C[C@@H]1CCCCO[C@H](CN(C)Cc2ccc(C(F)(F)F)cc2)[C@H](C)CN([C@H](C)CO)C(=O)c2cc(NS(=O)(=O)c3ccc(Cl)cc3)ccc2O1" and report
Found: 5.45 µM (active)

====

Would you mind telling me the reported EC50 of each entry?
# Experiment description: Luminescence Cell-Based Dose Response HTS to Identify Inhibitors of 5'UTR Stem-Loop Driven Prion Protein mRNA Translation in H4 Neuroglioblastoma Cells. [Related pubchem assays: 1827 (Project Summary), 1813 (Primary HTS)]
# Assay type: functional
Calls of active or inactive are those of the source.

Lookup: Which EC50 value belongs to "Cc1ccc(C(=O)NCCSc2ccccc2)cc1S(=O)(=O)Nc1ccccc1" ?
Found: 23.3 µM (active)

Lookup: // repeat for "NC(=NOCc1ccc([N+](=O)[O-])cc1)c1ccccn1" and report
Found: 0.223 µM (active)

Lookup: // repeat for "COc1cc(Cn2c(-c3nonc3N)nc3ccccc32)ccc1C" and report
Found: 10.3 µM (active)

Lookup: // repeat for "CCCCN(Cc1cc2cc(OC)ccc2nc1O)S(=O)(=O)c1ccc(C)cc1" and report
Found: 11.3 µM (active)

Lookup: // repeat for "N=c1nc(N)nc2n1NC(c1ccc(F)cc1)=CS2" and report
Found: > 120 µM (not active)

====

# Experiment description: cytotoxicity toward NIH3T3 fibroblasts, dose response, counter-screen, cell-based, ATP luminescence, mouse fibroblasts (AID 2010);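 also: cells exposed to compound for about 90 hours before reading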
# Format: functional
Active and inactive are the calls of the source.
Would you mind telling me the reported EC50 of each entry?

Lookup: Which EC50 value belongs to "Cc1cc(=O)n2nc(-c3ccc(C(C)(C)C)cc3)cc2[nH]1" ?
Found: > 60 µM (not active)

Lookup: // repeat for "CCOC(=O)c1sc(NC(=O)c2ccc(S(=O)(=O)N(C)C)cc2)cc1C" and report
Found: 8.88 µM (active)

Lookup: // repeat for CC(CCN(C)C)OC(=O)c1ccc(C(C)c2ccccc2)o1 (stereo not drawn) and report
Found: > 60 µM (not active)

Cited source for all entries: ChEMBL document CHEMBL1201862
